Data origin, for the record: PubChem BioAssay (Tox21)

- assay: qHTS assay to identify small molecule HDAC inhibitors (AID 1259364);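 further: wild-type HCT-116 cells with endogenous class I/II HDAC activity; nearly all actives have a fitted effect of over 45% in size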
- test conditions: HCT-116 HDAC-Glo I/II luminescence, 2 h; series mostly up to 92.4 µM
Results filed as inconclusive are left out. Activity calls are given as the source filed them. The call rests on the fitted dose curve; in most records, active means well fitted inhibition curve with a large enough effect in the repeat runs; inconclusive means weak or mixed curves; inactive means flat fitted curve, though single readings scatter.
Respond with a class label; see active, inactive

Exercise: Lab log entry: CC(=O)Nc1ccccc1O — outcome as called in the assay?
Solution: inactive

Exercise: Identify the outcome logged in this assay for the molecule shown: CC(C)NC(=O)c1ccccc1N
Solution: inactive

Exercise: Which outcome was assigned to CC(C)(C)N in this test?
Solution: inactive

Exercise: Kindly provide the recorded test outcome for the following molecule: O=C(O)COCC(=O)O
Solution: inactive

Exercise: Which outcome did this test record for the molecule CCCCCCCCNC ?
Solution: inactive

Exercise: Which result was noted for this molecule in the test: CC(C)Oc1ccccc1O
Solution: inactive

Exercise: Would you mind telling me which call this test gave Cc1ccc(NC=O)c(C)c1 ?
Solution: inactive

Exercise: Call for entry C1=COCCC1 :
Solution: inactive

Exercise: How was CC(=O)OCC(=O)[C@@]1(O)CC[C@H]2[C@@H]3CCC4=CC(=O)C=C[C@]4(C)[C@@]3(F)[C@@H](O)C[C@@]21C classified in this test?
Solution: inactive

Exercise: # outcome recorded in this test, key = O=C1CCCN1CCO
Solution: inactive

Exercise: Recorded test call requested for Nc1cccc2c(=O)[nH][nH]c(=O)c12
Solution: inactive

Exercise: What did the test return for Oc1ccc(Oc2ccccc2)cc1 ?
Solution: inactive

Exercise: Hi, do you know how NCCOCCOCCN came out in this test?
Solution: inactive

Exercise: For this molecule, state the assay outcome: O=C1OC(=O)C2CC=CCC12 (centres undefined)
Solution: inactive

Exercise: Name the outcome recorded for CCCCCCCCCCCCCCCCN in the assay.
Solution: inactive

Exercise: # outcome recorded in this test, key = CC(C)(Cc1c[nH]c2ccccc12)NCC(O)COc1ccccc1C#N (centres undefined)
Solution: inactive

Exercise: Which result was noted for this molecule in the test: CCCCCCCCCC(C)C=O (centres undefined)
Solution: inactive

Exercise: // outcome(item) with item = Cc1ccccc1CCO
Solution: inactive

Exercise: Tell me the recorded outcome of this test for CCOC(OCC)OCC .
Solution: inactive

Exercise: Check the results log: what was the call for CC(C)=CCCC(C)C=O (centres undefined) ?
Solution: inactive

Exercise: Status in this test for CC(=O)Nc1ccn(C2COC(COC(=O)c3ccccc3)O2)c(=O)n1 (centres undefined) ?
Solution: inactive

Exercise: Which outcome did this test record for the molecule CC(=O)c1ccc(Cl)c(Cl)c1Cl ?
Solution: inactive

Exercise: Short answer needed: outcome of this test for C=C[Si]1(C)O[Si](C)(C=C)O[Si](C)(C=C)O[Si](C)(C=C)O1 (centres undefined) ?
Solution: inactive

Exercise: Fill in: this test's call for CCCCOC(=O)CC#N is ___
Solution: inactive

Exercise: # outcome recorded in this test, key = CC(COc1ccccc1)NC(C)C(O)c1ccc(O)cc1 (centres undefined)
Solution: inactive

Exercise: Test call, this molecule: CC(CC(C#N)(c1ccccc1)C(C)C)N(C)C (centres undefined)
Solution: inactive

Exercise: Tell me the recorded outcome of this test for CC(C)=CCC/C(C)=C/C=N/O .
Solution: inactive

Exercise: Hi, do you know how CCCCOc1ccc(N)cc1 came out in this test?
Solution: inactive

Exercise: Could you check what this test reported for CCCN(C1CCN(C(=O)C2CCNCC2)CC1)[C@@H]1CCc2ccc(OC)cc2C1 ?
Solution: inactive

Exercise: // param item: COC(=O)/C=C/C(C)=C\C=C\C(C)=C\C=C\C=C(C)\C=C\C=C(C)\C=C\C(=O)O ; yields the recorded call
Solution: active

Exercise: What classification did CC1(C)CC(=O)CC(C)(C)N1 end up with in this test?
Solution: inactive

Exercise: For S=c1[nH][nH]c(=S)s1 , which call appears in the assay record?
Solution: inactive

Exercise: What classification did COc1ccc(/C=C/S(=O)(=O)NC(=O)c2ccc(C)cc2Cl)cc1 end up with in this test?
Solution: inactive

Exercise: Hey, what did the test say about CC1=C(C)C(=O)C(C(CCCCCC(=O)O)c2ccccc2)=C(C)C1=O (centres undefined) ?
Solution: inactive

Exercise: Dear all, I need the recorded test outcome for FC(F)(Cl)C(F)(Cl)Cl , thank you.
Solution: inactive

Exercise: Any idea what this test logged for CCC(=O)O[C@]1(C(=O)COC)[C@@H](C)C[C@H]2[C@@H]3CCC4=CC(=O)C=C[C@]4(C)C3(F)[C@@H](O)C[C@@]21C (some centres undefined) ?
Solution: inactive

Exercise: Query: recorded result category for CCCC(=O)OCCC(C)C in this test
Solution: inactive

Exercise: Short answer needed: outcome of this test for CC(C)CC(C)(C)C ?
Solution: inactive

Exercise: Answer briefly: the call reported for C=CC(C)CCC=C(C)C (centres undefined) in this assay.
Solution: inactive

Exercise: What did this assay record as the result for CCC(C)C1N=C(C)C(C)S1 (centres undefined) ?
Solution: inactive

Exercise: Could you please tell me the result logged for O=C(OCCOCCOCCOC(=O)c1ccccc1)c1ccccc1 in this assay?
Solution: inactive

Exercise: Record lookup: outcome of this test for C=C[Si](OCC)(OCC)OCC ?
Solution: inactive

Exercise: Could you check what this test reported for COc1ccc(/C=C/c2cc(OC)cc(=O)o2)cc1 ?
Solution: active

Exercise: Any idea what this test logged for CCCCCCCCCCCCSCCOCCO ?
Solution: inactive

Exercise: Returns: the outcome recorded for O=C(O)CNc1ccccc1 in this assay.
Solution: inactive

Exercise: What classification did Cc1cc(N)n(-c2ccccc2)n1 end up with in this test?
Solution: active

Exercise: Status in this test for O=C(C1CCCCC1)N1CC(=O)N2CCCc3ccccc3C2C1 (centres undefined) ?
Solution: inactive

Exercise: Recorded call for CC1(C)CC(O)CC(C)(C)N1[O] ?
Solution: inactive

Exercise: Record lookup: outcome of this test for CCCCCCCCCCCCSC#N ?
Solution: inactive

Exercise: What outcome does the record of this test show for CC(O)CN (centres undefined) ?
Solution: inactive

Exercise: Any idea what this test logged for CCOc1cc(OCC)c(C(C)=O)cc1OCC ?
Solution: inactive

Exercise: Please let me know the test result on file for CCCCCCOC(=O)c1ccccc1 .
Solution: inactive

Exercise: Returns: the outcome recorded for CC1(C)C(=O)NC(=O)N1CO in this assay.
Solution: inactive

Exercise: Which outcome was assigned to C=CCCC in this test?
Solution: inactive

Exercise: Hi, do you know how CCOC(=O)CC(O)(CC(=O)OCC)C(=O)OCC came out in this test?
Solution: inactive

Exercise: What did this assay record as the result for Cc1cc(SC2=C(O)C[C@@](CCc3ccc(N)cc3)(C(C)C)OC2=O)c(C(C)(C)C)cc1CO ?
Solution: inactive

Exercise: Recorded call for CC(C)(C)c1ccc(CCC=O)cc1 ?
Solution: inactive

Exercise: Record request — test call for O=C(O)c1cccc(C(=O)O)c1C(=O)O
Solution: inactive

Exercise: Recorded test call requested for CC1(COc2ccc(CC3SC(=O)NC3=O)cc2)CCCCC1 (centres undefined)
Solution: inactive
